Origin of the recorded values: patent US20170081400A1

Let's look at some binders and their measured TL1A Binding Level (Late).
Target: T1, human TL1A extracellular domain with N-terminal HIS and FLAG tag (human, UniProt O95150 72-251)
T1 construct: the whole entry is named; also called TNFSF15
T1 sequence: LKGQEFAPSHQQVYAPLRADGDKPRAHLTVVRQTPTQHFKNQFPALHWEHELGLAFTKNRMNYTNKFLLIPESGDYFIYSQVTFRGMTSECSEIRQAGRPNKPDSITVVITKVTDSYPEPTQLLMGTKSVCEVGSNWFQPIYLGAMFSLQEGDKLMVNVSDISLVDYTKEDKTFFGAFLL
Assay: SPR Run 9, antibody on Protein A, TL1A 5 ug/mL, timepoint 590
Please respond with the number in RU and leave the unit unwritten.

Below, each entry is followed by its recorded TL1A Binding Level (Late) result.
320-599 (antibody, human IgG1, name in Kabat numbering, V domains shown, full-length human IgG1, lambda) VH: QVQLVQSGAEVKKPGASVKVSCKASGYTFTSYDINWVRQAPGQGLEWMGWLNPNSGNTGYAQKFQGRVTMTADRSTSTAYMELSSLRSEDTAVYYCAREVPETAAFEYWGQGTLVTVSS VL: QSVLTQPPSVSGAPGQRVTISCTSSSSDIGAGSGVHWYQQLPGTAPKLLIEGYYNRPSGVPDRFSGSKSGTSASLTITGLLPEDEGDYYCQSFDGTLSALFGGGTKLTVLG    103
320-612 (antibody, human IgG1, name in Kabat numbering, V domains shown, full-length human IgG1, lambda) VH: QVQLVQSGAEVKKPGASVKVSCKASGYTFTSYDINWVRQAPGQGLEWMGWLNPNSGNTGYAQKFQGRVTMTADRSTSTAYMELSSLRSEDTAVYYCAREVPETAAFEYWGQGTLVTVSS VL: QSVLTQPPSVSGAPGQRVTISCTSSSSDIGAGLGVHWYQQLPGTAPKLLIEGYYNRPSGVPDRFSGSKSGTSASLTITGLLPEDEGDYYCQSWDYTLSALFGGGTKLTVLG    120
320-596 (antibody, human IgG1, name in Kabat numbering, V domains shown, full-length human IgG1, lambda) VH: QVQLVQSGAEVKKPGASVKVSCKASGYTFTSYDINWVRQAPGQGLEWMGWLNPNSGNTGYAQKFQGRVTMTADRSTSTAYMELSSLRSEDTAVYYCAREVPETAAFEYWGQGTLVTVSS VL: QSVLTQPPSVSGAPGQRVTISCTSSSSDIGAGLGVHWYQQLPGTAPKLLIEGYYNRPSGVPDRFSGSKSGTSASLTITGLLPEDEGDYYCQSFDGTLSALFGGGTKLTVLG    85

Now for another entry.
Which value of TL1A Binding Level (Late) has been reported for 320-600 (antibody, human IgG1, name in Kabat numbering, V domains shown, full-length human IgG1, lambda) VH: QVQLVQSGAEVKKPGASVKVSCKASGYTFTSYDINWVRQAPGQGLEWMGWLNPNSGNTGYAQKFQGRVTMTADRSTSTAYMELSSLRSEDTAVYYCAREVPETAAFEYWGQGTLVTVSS VL: QSVLTQPPSVSGAPGQRVTISCTSSSSDIGAALGVHWYQQLPGTAPKLLIEGYYNRPSGVPDRFSGSKSGTSASLTITGLLPEDEGDYYCQSFDGTLSALFGGGTKLTVLG in the records?
104
